Assayed Target: KRAS G12V (Homo sapiens, UniProt P01116, G12V)
Sequence (P01116 1-188 isoform P01116-2 G12V): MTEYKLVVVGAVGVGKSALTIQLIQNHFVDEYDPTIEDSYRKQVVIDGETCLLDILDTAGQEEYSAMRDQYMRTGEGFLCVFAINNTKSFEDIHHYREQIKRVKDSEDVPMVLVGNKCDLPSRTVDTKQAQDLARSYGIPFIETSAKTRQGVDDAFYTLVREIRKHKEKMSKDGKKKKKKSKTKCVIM
Experimental Details: GDP-GTP exchange assay (bodipy-GDP/GppNHp, SOS1), KRAS G12V
Recorded Conditions: bodipy-loaded KRAS G12V 2.5 nM, 3 hours incubation after adding GppNHp-SOS1; read-out: G12V_exchange IC50
pIC50: −log10 of the molar value.
Measured Metric: pIC50

{"Compound": "CN(C)C1CN(c2nc3c(F)c(-c4cc(O)cc5ccccc45)c(CCC#N)cc3c3c2nc(CN2CCCC2=O)n3C2C3CNC2C3)C1 (single isomer, unassigned)", "Measured Metric": "pIC50", "Meas Value": "≥ 7.00"}
{"Compound": "CN(C)C(=O)CCc1nc2c(N3CC(N(C)C)C3)nc3c(F)c(-c4cc(O)cc5ccccc45)cc(CN4CCC(C#N)C4)c3c2n1C1C2CNC1C2 (stereo not drawn)", "Measured Metric": "pIC50", "Meas Value": "5.00 to 5.30"}

In the following, a different compound is considered.
(Q) Item CN(C)C(=O)CCc1nc2c(N3CC(N(C)C)C3)nc3c(F)c(-c4cc(O)cc5ccccc45)c(Cn4cccn4)cc3c2n1[C@@H]1[C@@H]2CN[C@H]1C2 (relative stereo) has what recorded pIC50?
(A) ≥ 7.00
